Data origin, for the record: patent US4156724A

Reported MIC values follow for various compounds
# Tested on: Proteus vulgaris HX 19
# PROTOCOL NOTES: Minimum Inhibitory Concentration, Proteus vulgaris HX 19
# Assay type: cell-based
# RUN PARAMETERS: HX19; Proteus vulgaris HX 19; read-out: Minimum Inhibitory Concentration
PROPERTY MEASURED: MIC (µg/mL)

• Cc1ccc2c(O)c(C(=O)N[C@@H](C(=O)N[C@@H]3C(=O)N4C(C(=O)O)=C(CSc5nnc(C)s5)CS[C@H]34)c3ccc(NC(N)=O)cc3)cnc2n1 [Example 25] = 0.39
• O=C(O)C1=C(CSc2nnc(CO)s2)CSC2C(NC(=O)C(NC(=O)c3cnc4cncnc4c3O)c3cccc(O)c3)C(=O)N12 (stereo not drawn) [Example 155] = 0.78
• CC(=O)OCC1=C(C(=O)O)N2C(=O)C(NC(=O)[C@H](NC(=O)c3cnccc3O)c3ccc(O)cc3)C2SC1 (stereo partly drawn) [Example 113] = 0.2
• CC(=O)OCC1=C(C(=O)O)N2C(=O)C(NC(=O)[C@H](NC(=O)c3cnc4nc(C)ccc4c3O)c3ccc(O)cc3)C2SC1 (stereo partly drawn) [Example 123] = 0.78
• CSc1ccc2ncc(C(=O)N[C@@H](C(=O)NC3C(=O)N4C(C(=O)O)=C(CSc5nnc(CN)s5)CSC34)c3ccc(O)cc3)c(O)c2n1 (stereo partly drawn) [Example 153] = 0.39
• CSc1cnc2c(O)c(C(=O)NC(C(=O)NC3C(=O)N4C(C(=O)O)=C(CSc5nnnn5C)CSC34)c3cccc(N)c3)cnc2n1 (stereo not drawn) [Example 70] = 0.1
